# System: P. falciparum 3D7 growth, pLDH absorbance
# assay summary: blood-stage malaria parasite growth potency – strain 3D7, dose response (AID 2305)
Mark t only for IC50 values smaller than 1000 nM; exact matches and larger values are f.

compound	qualitative label
COc1ccc(CC(C)NCC(O)c2cccc(Br)c2)cc1 (stereo unspecified)	t

Exam item: Regarding CCOC(=O)c1ccc(NC(=O)Nc2ccc(-c3cccc(-c4nc5ccc(F)cc5[nH]4)c3)cc2)cc1 , kindly confirm whether its IC50 is beneath 1000 nM.
Marked response: t

Exam item: Would you kindly repeat that for COc1ccc2nccc([C@@H](O)CN3CCC(NC(=O)C(c4cc5ccccc5o4)N4CCN(c5ccccc5)CC4)CC3)c2c1 (stereo partly specified) ?
Marked response: t

Exam item: Would you kindly repeat that for CC(C)CC(NC(=O)c1cccc(OCCN2CCOCC2)c1)C(=O)NC(/C=N/NC(=O)c1ccccc1)CCc1ccccc1 (stereo unspecified) ?
Marked response: t

Exam item: Would you kindly repeat that for COc1ccc(N2CCN(CCCOc3ccc(NC(=O)c4cc(Cl)cc(Cl)c4)cc3)CC2)c(OC)c1 ?
Marked response: t

Exam item: Would you kindly repeat that for O=C(NCCc1cccc(Cl)c1Cl)c1ccc(N2CCN(c3ccncc3)CC2)nc1 ?
Marked response: f

Exam item: Would you kindly repeat that for O=C(Nc1cc(Cl)cc(Cl)c1)Nc1ccccc1C(=O)NC1CCCCC1 ?
Marked response: t

Exam item: Would you kindly repeat that for CC(C)CSc1cc(C(=O)Nc2cc(Cl)ccc2O)ccn1 ?
Marked response: t

Exam item: Would you kindly repeat that for CNCCCCCCOc1ccc(CC(C)NCC(O)c2cccc(C(F)(F)F)c2)cc1 (stereo unspecified) ?
Marked response: t

Exam item: Would you kindly repeat that for Cc1cc(-c2ccc3c(c2)CC[C@@H](N[C@@H](C)c2ccccc2)C3)cnc1N ?
Marked response: f
